Values compiled from paper PMC5540273.

# System: CSNK1E
# Condition info: concentration: 1 μM, replicates: in singlicate; n = 1;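 note: KINOMEscan kinase panel screen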
Recorded endpoint: %Inh (%)
Write the value in % as a bare number.

// solved cases for %Inh follow
O=c1cc(N2CCOCC2)nc2n(Cc3ccc(F)c(Cl)c3)ccn12 [GSK2297099] :: 52
COc1cc2ncn(-c3cc(OCc4ccc(S(C)(=O)=O)cc4)c(C(N)=O)s3)c2cc1OC [GW869979] :: 13
CCC(=O)c1c(-c2ccccc2)c2cc(Cl)ccc2c(=O)n1Cc1cc(S(C)(=O)=O)n(CC(F)F)n1 :: 1

For the next question, use this compound.
Write down %Inh measured for item C[C@@H]1CC[C@H](C(=O)NC2CCCCC2)CN1c1cc(-c2ccc3c(N)n[nH]c3c2)nc(N)n1 [GSK2291363]
24

---

# Test system: CSNK2A1
# Condition info: concentration: 1 μM, replicates: in singlicate; n = 1
Recorded endpoint: %Inh (%)
Write down the numeric answer in % and omit the unit.

Take a look at these entries with their results.
CCC(=O)c1c(-c2ccccc2)c2cc(Cl)ccc2c(=O)n1Cc1cc(S(C)(=O)=O)n(CC(N)=O)n1 :: 0
COc1ccc(-c2cc3c(C)nc(N)nc3n([C@H]3CC[C@H](O)CC3)c2=O)cn1 :: 0
Nc1ncnc2c1ncn2-c1cccc(F)c1 :: 28
COc1cc2nccc(Nc3ccc(OCc4ccc(NC(C)=O)cc4)cc3)c2cc1OC.Cl :: 5
Cc1cc(Nc2nc(-c3cccc(C)n3)nc3ccccc23)ccn1 :: 0
COc1cc2nccc(Nc3cccc(Oc4ccccc4)c3)c2cc1OC.Cl :: 0
CCC(=O)c1c(-c2ccccc2)c2cc(Cl)ccc2c(=O)n1Cc1ccc(C(=O)O)cc1 :: 0
O=C(Nc1n[nH]c2nc(-c3ccccc3)c(Br)cc12)C1CC1 :: 6

// next item, %Inh requested
Given Cc1cccc(-c2nc(Nc3ccc4c(cnn4C)c3)c3ccccc3n2)n1 , report its %Inh on CSNK2A1.
0

---

# Tested on: TRKB
# Condition info: concentration: 1 μM, replicates: in singlicate; n = 1
Each entry below carries its reported %Inh.
Numeric only. Scale: %

Nc1nc(N)c2nc(-c3ccccc3)[nH]c2n1 [SKF-12778] :: 9
Cc1cccc(-c2nc(Nc3ccc4c(cnn4C)c3)c3ccccc3n2)n1 [GW876731] :: 0
Cc1nn2c(=O)cc(N3CCOCC3)nc2n1Cc1cccc(Cl)c1Cl [GSK2342769] :: 0

Answer with reported %Inh of Fc1cccc(CSc2nnc(-c3ccc4c(c3)CCO4)o2)c1
0

Indicate its recorded %Inh; the compound in question is Nc1ncnc2c1ncn2-c1ccc(Cl)cc1 [AH2635]
0

For the compound CN1C(=O)C(Nc2ccccc2)=C(c2ccccc2)C1=O [SB-300079] , report %Inh.
9

Supply measured %Inh of Cc1cccc(-c2cc(-c3c[nH]nc3-c3ccccn3)ccn2)c1 [GW679395] in your reply.
13

Give reported %Inh value for Nc1n[nH]c2ncc(-c3ccccc3)cc12 [SB-517081]
37

Provide %Inh value for the following compound: OCCCNc1nccc(-c2c(-c3cccc(C(F)(F)F)c3)nn3cc(C(F)(F)F)ccc23)n1 [GW630813]
7

Report %Inh, nothing else, for this compound: COc1cc(OC)cc(-c2cc3cnc(N)nc3nc2NC(=O)NC(C)(C)C)c1
0
